Every entry's value here was drawn from PubChem BioAssay (NCI).

tested on: K-562 leukemia; experiment: NCI-60 one-dose screen, 48 h; conditions: 10 µM unless noted
The panel holds about 83,000 compounds, 20% with a hit somewhere; the sample as a whole holds those more often. Active and inactive are the calls of the source. Rule for the calls: active = growth percent below 10; inactive = the rest.
Choose one outcome from this list and give only that: active, inactive

Task item: Name the outcome recorded for CC[C@]12C=CCN3CC[C@@]4(c5ccc(OC)cc5N(C)[C@H]4[C@@](O)(C(=O)OC)[C@@H]1OC(=O)CCC[P+](c1ccc(OC)cc1)(c1ccc(OC)cc1)c1ccc(OC)cc1)[C@@H]32 in the assay.
Reply: active

Task item: // outcome(item) with item = Cc1cnc2ccc(Oc3ccccc3-c3ccccc3)nn12
Reply: inactive

Task item: Hello, I am checking results. What call was entered for N#Cc1ccc(C(=O)CSc2nc3c(c(Nc4ccc(S(N)(=O)=O)cc4)n2)CCC3)cc1 ?
Reply: inactive

Task item: Per the records of this test, what outcome belongs to COc1ccc(-c2cc(C(=O)N=Nc3c(O)[nH]c4ccc(Cl)cc34)c3ccccc3n2)cc1OC ?
Reply: inactive

Task item: Give the logged outcome of this assay for the following molecule: Clc1ccc(-c2nc3c4c(-c5ccccc5)c(-c5ccccc5)n(Cc5ccccc5)c4ncn3n2)cc1
Reply: active

Task item: Which outcome was entered for the molecule COc1cc(CNC(=O)C[C@H](C)CCC=C(C)C)ccc1OCc1cn(-c2ccccc2F)nn1 in this test?
Reply: inactive

Task item: I would be grateful if you could indicate the recorded call for CNS(=O)(=O)N1CCc2c(Br)c3c(c(OC)c2C1CCc1ccccc1)OCO3 (configuration not stated) .
Reply: inactive

Task item: State the result this test recorded for Cc1ccccc1NC(=O)c1cccc(NC(=O)CCl)c1 .
Reply: inactive

Task item: Record request — test call for CC(C)(C)C(=O)C1CC(C#N)=C2C=Cc3c(ccc4ccccc34)N21 (configuration not stated)
Reply: inactive

Task item: Which result was noted for this molecule in the test: COc1cccc(/C=C/c2nc3ccccc3c(=O)n2CC(=O)Nc2ccccc2)c1
Reply: inactive

Task item: # outcome recorded in this test, key = CCN1C(=O)N(CC)C2NNC(Sc3c(C(=O)O)c4ccccc4n(CC(C)C)c3=O)=NC21 (configuration not stated)
Reply: active

Task item: GET /call?item= COc1cc2cc(C(=O)N3C[C@@H](CCl)c4c3cc(OC(=O)N(C)CCSSCCN3CCOCC3)c3ccccc43)[nH]c2c(OC)c1OC returns the recorded outcome of this test.
Reply: active

Task item: Please indicate how the test categorized COc1ccc(N=Nc2c(N)nn3c(-c4ccc(OC)c(OC)c4)ccnc23)cc1 .
Reply: inactive

Task item: Fill in: this test's call for C/C(=N\Nc1ccc(C(=O)O)cc1)c1cnn(-c2cc(=O)[nH]c3ccc(C)cc23)c1C is ___
Reply: inactive

Task item: Could you kindly confirm the outcome this assay logged for O=C1N/C(=N\c2nccs2)S/C1=C\c1ccc([N+](=O)[O-])cc1 ?
Reply: inactive

Task item: Would you mind telling me which call this test gave c1n[nH]cc1-c1nc2ccc3[nH]ncc3c2c2c1CC1(CCOCC1)CC2 ?
Reply: inactive

Task item: Could you check what this test reported for O=C(NN1C(=O)/C(=C/C=C/c2ccc([N+](=O)[O-])o2)SC1=S)c1ccc([N+](=O)[O-])cc1 ?
Reply: active

Task item: Hi team, can someone confirm the assay call for COc1ccc(C(=O)/C=C/c2ccc3c(c2)OCCO3)cc1S(N)(=O)=O ?
Reply: inactive

Task item: // return assay outcome for COc1ccc(OC)c(Cn2cc(C#N)c(N)c2C(=O)c2ccc(Br)cc2)c1
Reply: inactive

Task item: Write down the call the test reported for this molecule. Item: Cc1ccc2c(c1)/C(=C/C(=O)c1cc3ccccc3oc1=O)C(=O)N2
Reply: active

Task item: Call for entry C#CCN(C)CCCOc1ccc(N(CC)C(=O)c2cc(C(C)C)c(O)cc2O)cc1Cl :
Reply: active

Task item: Please let me know the test result on file for COc1ccc(C(=O)c2c(N)c(C#N)cn2-c2ccc([N+](=O)[O-])cc2)cc1 .
Reply: inactive

Task item: Look up the recorded call for CC(=O)c1ccc2c(N)c(C(=O)Nc3ccc(C(F)(F)F)cc3)sc2n1 in this test.
Reply: inactive

Task item: Recorded test call requested for Cc1cc(C(NC(=O)C2CC3(CC(Nc4cccc5c4C(=O)N(C4CCC(=O)NC4=O)C5=O)C3)C2)c2ccc3c(c2)OC(F)(F)O3)c(O)c2ncccc12 (configuration not stated)
Reply: inactive

Task item: Which outcome was assigned to Cc1ccc(C(C(=O)NC2CCCCC2)N(Cc2ccccc2Cl)C(=O)c2ccc(CN3CCOCC3)o2)o1 (configuration not stated) in this test?
Reply: inactive

Task item: How did this test come out for C[C@H]1[C@@H](CC(=O)N[C@@H](Cc2coc3ccccc23)B(O)O)O[C@@H]2OC3(C)CC[C@H]4[C@H](C)CC[C@@H]1[C@@]24O3 ?
Reply: inactive

Task item: Entry COc1ccc(/C=C/C(=O)c2ccc(OC)c(S(N)(=O)=O)c2)c(C(F)(F)F)c1 : call = ?
Reply: active

Task item: Each molecule tested received a call. Report the one for COc1ccc(NC2=C(I)C(=O)C(C)=C(C)C2=O)cc1 .
Reply: active

Task item: For Nc1cc2ccccc2c(=O)n1NC(=O)c1ccccc1 , what call appears in the results of this test?
Reply: inactive

Task item: Entry COc1c2c(cc3c1C(CCc1ccccc1)N(C)CC3)OCO2 (configuration not stated) : call = ?
Reply: active

Task item: Returns: the outcome recorded for CCOc1ccc2[nH]c(=O)c(C(c3nnnn3CC3CCCO3)N3CCN(Cc4ccccc4)CC3)cc2c1 (configuration not stated) in this assay.
Reply: inactive

Task item: Lab log entry: COc1cc(CNC(=O)C[C@H](C)CCC=C(C)C)ccc1OCc1cn(-c2cccc(C(F)(F)F)c2)nn1 — outcome as called in the assay?
Reply: inactive

Task item: Entry Fc1cccc(CNc2nc(SCCN3CCOCC3)nc3c2cnn3CC(Cl)c2ccc(Br)cc2)c1 (configuration not stated) : call = ?
Reply: active

Task item: Would you mind telling me which call this test gave COc1ccc(N=Nc2c(N)nn3c(-c4cc5cc(Br)ccc5oc4=O)ccnc23)cc1 ?
Reply: inactive

Task item: Write down the call the test reported for this molecule. Item: CCCCNC(=S)Nc1ccc(OCc2nc3ccc(Cl)cc3[nH]2)cc1
Reply: inactive

Task item: What is the recorded call for this molecule in the test? Clc1ccc2c(NCCNC34CC5CC(CC(C5)C3)C4)ccnc2c1
Reply: active

Task item: How was COc1ccc2[nH]c(=O)cc(-n3ncc(C(=O)/C=C/c4cc(OC)c(OC)c(OC)c4)c3C)c2c1 classified in this test?
Reply: active
